# Tested On: HDAC8 enzyme
# Experiment Notes: In vitro HDAC assay (BIOMOL fluorescent-based HDAC activity assay), HDAC8
# Format: biochemical, human
# Protocol Conditions: Table 5; Free base; read-out: IC50 (HDAC8)
Measurement Label: IC50 (nM)
Please respond with the number in nM and leave the unit unwritten.

I am curious: what IC50 value has been reported for `O=C(/C=C/c1ccc2c(c1)nc(CCc1ccccc1)n2CCN1CCCCC1)NO` ?
254

Item: `CN(C)CC(C)(C)Cn1c(CCc2ccccc2)nc2cc(/C=C/C(=O)NO)ccc21`
353

###

# Tested On: HDAC1 enzyme (Homo sapiens)
# Experiment Notes: In vitro HDAC assay (BIOMOL fluorescent-based HDAC activity assay), HDAC1
# Type: biochemical
# Protocol Conditions: Table 3; read-out: HDAC1 Enzyme Activity IC50
Measurement Label: IC50

CC(C)OCCCn1c(CCc2ccccc2)nc2cc(/C=C/C(=O)NO)ccc21: 1690 nM
COc1ccc(CNCc2nc3cc(/C=C/C(=O)NO)ccc3n2C)cc1: 234 nM
O=C(/C=C/c1ccc2c(c1)nc(CCc1ccccc1)n2CCO)NO: 570 nM
CN(C)CC(C)(C)Cn1c(CCCc2ccccc2)nc2cc(/C=C/C(=O)NO)ccc21: 71 nM

Then there is this compound:
I am curious: what IC50 value has been reported for `O=C(O)CCn1c(CCc2ccccc2)nc2cc(/C=C/C(=O)NO)ccc21` ?
2210 nM

###

Each entry below carries its reported IC50.
# Tested On: HDAC1 enzyme (Homo sapiens, UniProt Q13547)
# Sequence (Q13547 whole entry): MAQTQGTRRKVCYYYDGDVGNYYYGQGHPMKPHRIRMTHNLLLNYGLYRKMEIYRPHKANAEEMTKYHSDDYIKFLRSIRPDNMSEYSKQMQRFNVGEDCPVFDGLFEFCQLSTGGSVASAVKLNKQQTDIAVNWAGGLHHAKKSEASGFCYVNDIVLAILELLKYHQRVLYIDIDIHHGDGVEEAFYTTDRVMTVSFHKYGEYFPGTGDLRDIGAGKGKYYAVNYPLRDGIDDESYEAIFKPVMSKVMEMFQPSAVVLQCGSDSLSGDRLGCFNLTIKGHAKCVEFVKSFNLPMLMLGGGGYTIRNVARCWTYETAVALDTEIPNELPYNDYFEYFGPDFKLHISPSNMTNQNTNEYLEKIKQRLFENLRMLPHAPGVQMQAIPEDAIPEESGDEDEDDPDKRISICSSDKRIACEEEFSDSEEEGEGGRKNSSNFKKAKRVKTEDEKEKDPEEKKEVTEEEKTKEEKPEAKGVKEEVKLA
# Experiment Notes: In vitro HDAC assay (BIOMOL fluorescent-based HDAC activity assay), HDAC1
# Format: biochemical
# Protocol Conditions: Table 5; Salt of CF3COOH; read-out: IC50 (HDAC1)
Please respond with the number in nM and leave the unit unwritten.

O=C(/C=C/c1ccc2c(c1)nc(CCc1ccccc1)n2CCN1CCCCC1)NO: 39

Then there is this molecule:
I am curious: what IC50 value has been reported for `CN(C)CC(C)(C)Cn1c(CCc2ccccc2)nc2cc(/C=C/C(=O)NO)ccc21` ?
24

###

Each entry below carries its reported pIC50.
# Tested On: HDAC1 enzyme (Homo sapiens)
# Experiment Notes: In vitro HDAC assay (BIOMOL fluorescent-based HDAC activity assay), HDAC1
# Assay type: biochemical
# Protocol Conditions: Table 3; read-out: HDAC1 Enzyme Activity IC50
Reminder that pIC50 is minus the log10 of a molar concentration.

O=C(/C=C/c1ccc2c(c1)nc(CCc1ccccc1)n2CC(O)CO)NO (stereo not shown): 6.54
COc1cc(Cn2c(CCc3ccccc3)nc3cc(CCC(=O)NO)ccc32)cc(OC)c1OC: 6.78

Then there is this molecule:
Give recorded pIC50 with HDAC1 enzyme (Homo sapiens) for the following molecule: `CCn1c(CCNC(=O)COc2ccccc2)nc2cc(/C=C/C(=O)NO)ccc21`
6.25

###

# Tested On: HDAC8 enzyme
# Experiment Notes: In vitro HDAC assay (BIOMOL fluorescent-based HDAC activity assay), HDAC8
# Format: biochemical, human
# Protocol Conditions: Table 3; read-out: HDAC8 Enzyme Activity IC50
Each entry below carries its reported log10 of IC50.
Each number you see is log10 of IC50, and the unit inside the log is nM.

CC(Cc1nc2cc(/C=C/C(=O)NO)ccc2n1CCc1cccnc1)c1ccccc1 (stereo not drawn) [Compound 41]: 2.20
CC(C)Cc1nc2cc(/C=C/C(=O)NO)ccc2n1CCc1ccccn1 [Compound 22]: 2.37
O=C(O)CCn1c(CCc2ccccc2)nc2cc(/C=C/C(=O)NO)ccc21 [Compound 32]: 3.28
O=C(/C=C/c1ccc2c(c1)nc(-c1ccncc1)n2CCO)NO [Compound 10]: 2.95
O=C(/C=C/c1ccc2c(c1)nc(CCc1ccccc1)n2Cc1cccnc1)NO [Compound 12]: 2.31
CC(C)Cc1nc2cc(/C=C/C(=O)NO)ccc2n1Cc1ccccc1 [Compound 34]: 2.93
COCCCn1c(CCc2ccccc2)nc2cc(/C=C/C(=O)NO)ccc21 [Compound 15]: 2.50
CCCCCCCCc1nc2cc(/C=C/C(=O)NO)ccc2n1CCCO [Compound 23]: 2.60

I am curious: what log10 of IC50 value has been reported for O=C(NO)c1ccc2c(c1)nc(CCc1ccccc1)n2CCCO [Compound 40] ?
2.64

Item: O=C(/C=C/c1ccc2c(c1)nc(-c1ccccn1)n2CCCO)NO [Compound 13]
2.15

Item: O=C(/C=C/c1ccc2c(c1)nc(CCc1ccccc1)n2CCCN1CCCC1=O)NO [Compound 30]
2.86

Item: CCN(CC)CCn1c(CCc2ccccc2)nc2cc(/C=C/C(=O)NO)ccc21 [Compound 66]
2.41

Item: O=C(/C=C/c1ccc2c(c1)nc(CCc1ccccc1)n2CCCO)NO [Compound 14]
2.40

Item: O=C(/C=C/c1ccc2c(c1)nc(CCc1ccccc1)n2CC(O)CO)NO (stereo not drawn) [Compound 8]
2.66

Item: CCn1c(C)nc2cc(/C=C/C(=O)NO)ccc21 [Compound 43]
2.28

Item: O=C(/C=C/c1ccc2c(c1)nc(CCc1ccccc1)n2CCc1cccnc1)NO [Compound 27]
2.52

Item: COc1cc(Cn2c(CCc3ccccc3)nc3cc(/C=C/C(=O)NO)ccc32)cc(OC)c1OC [Compound 2]
2.55

Item: O=C(/C=C/c1ccc2c(c1)nc(CCc1ccccc1)n2CCc1ccccn1)NO [Compound 18]
2.46
